Data provenance: the supplement of paper PMC10065799

Tested on: c-Abl (mouse);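 also: 11-residue human phosphosite peptides and single-mutation variants displayed on the E. coli surface, counted by deep sequencing, each peptide's frequency after selection divided by its frequency in the unselected input library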;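 also: frequency after pTyr selection over input frequency; kinase dosed for 20-30% of maximal phosphorylation in three min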
Assay: phosphorylation enrichment, bacterial display (enrichment ratio); higher = better substrate or ligand; peptides without Tyr show the background
OBSERVED_PROPERTY: phosphorylation enrichment
Numbers only.

- SEQUENCE_CHAIN: "ACCLLYCGDVV [TUBA4A_Y319_R320C]"
  phosphorylation enrichment: 1.29
- SEQUENCE_CHAIN: "SREDIYKRNIE [PDE4DIP_Y45]"
  phosphorylation enrichment: 0.654

Batch request: phosphorylation enrichment per item, same order as input.
1. RSYSPCDYQPC [TNS1_Y796_Y796C]
2. IGRHAYGDQFR [IDH1_Y135_YF]
3. HKLSFNEFDFE [BTK_Y40_Y40N_YF]
4. IEDPYYGNDFD [ACP1_Y133_S137F]
5. TLSGTYQYIIA [FOXL2_Y81_I80T]
6. EPTPGYEVSQR [TSC2_Y1788_G1791S]
7. GHLFAYDWIRI [BEST1_Y227_S231R_YF]

0.457
0.516
1.02
0.93
1.05
0.615
0.674

Batch request: phosphorylation enrichment per item, same order as input.
1. VMIFAYLLHRG [PTEN_Y138_C136Y_YF]
2. PLYSKYWPNHI [GREB1L_Y1560_R1558S]
3. KDKLPYPYDDP [GPX2_Y125]
4. SVTCTCSPALN [TP53_Y126_Y126C]
5. GLDSSYLLRDS [SH2D1A_Y29_G27S]
6. AAVDEYLEFRR [FAM221A_Y17_YF]
7. QSSALYEDCYL [ASS1_Y83_R86C]
8. FRVAGYKTQGG [TIA1_Y383_E384K_YF]

1. 0.781
2. 22.6
3. 0.584
4. 0.907
5. 0.434
6. 0.722
7. 1.35
8. 0.686

Batch request: phosphorylation enrichment per item, same order as input.
1. GASRRYGSGVS [NEU1_Y242_W240R]
2. DTFDPYLDIAL [USP36_Y268_V271I_YF]
3. LMVFEYMRHGD [NTRK1_Y591]
4. PLLLSYYLIKW [NUP160_Y773]
5. QRAADYFSQQM [GBP6_Y333_YF]

1. 0.437
2. 0.727
3. 0.457
4. 1.2
5. 0.586

Batch request: phosphorylation enrichment per item, same order as input.
1. LFLACYCIGGG [UBD_Y161]
2. VIKDKYPKAHF [APTX_Y209_R213H_YF]
3. SDVCMYRKNTY [SYNE2_Y570_I574T]
4. CGPLLYGLVHQ [PRKCG_Y122_S119P]
5. KVMANYVYKAG [MAML2_Y513_M514V]
6. CTTIHHNFMCN [TP53_Y234_Y234H_YF]

[0.908, 0.514, 0.684, 0.73, 0.453, 0.478]
